FYI, the data here is from ChEMBL document CHEMBL4706718.

- assay: Cytotoxicity against HEK cells assessed as cell viability at 10 uM measured after 24 hrs by MTT assay relative to control
- Format: cell-based
- experimental setup: human, read-out: Activity
result type: viability at 24 h, 10 µM (%)
Just the number please, in %, no unit attached.

Quick check: viability at 24 h, 10 µM of CCCCCC(=O)Nc1ccc(-n2ncc(-c3nc(C)no3)c2C(F)(F)F)cc1 ?
88.5

---

remaining at 1 h, 50 µM reference
- assay: Stability in CD-1 mouse liver S9 fraction assessed as parent compound remaining at 50 uM measured after 60 mins by HPLC-UV analysis
- Assay type: ADME, subcellular
- experimental setup: read-out: Stabilty
Just the number please, in %, no unit attached.

compound	u	remaining at 1 h, 50 µM
CCCC(C)OC(=O)c1cnn(-c2ccc(-n3cc(-c4cccc(C(=O)O)c4)nn3)cc2)c1C(F)(F)F (stereo not drawn)	%	74
Cc1noc(-c2cnn(-c3ccc(NC(=O)c4c(C)noc4C)cc3)c2C(F)(F)F)n1	%	99
CCOC(=O)c1cnn(-c2ccc(NC(=O)C(Cl)=C(Cl)Cl)cc2)c1C(F)(F)F	%	43
Cc1ccc(S(=O)(=O)Nc2ccc(-n3ncc(-c4nc(C)no4)c3C(F)(F)F)cc2)cc1	%	76

Quick check: remaining at 1 h, 50 µM of Cc1noc(-c2cnn(-c3ccc(NC(=O)c4ccc(C#N)c(F)c4)cc3)c2C(F)(F)F)n1 ?
73

Quick check: remaining at 1 h, 50 µM of CCCCCC(=O)Nc1ccc(-n2ncc(-c3nc(C)no3)c2C(F)(F)F)cc1 ?
91

---

- assay: Stability in CD-1 mouse liver microsomes assessed as parent compound remaining at 50 uM measured after 60 mins by HPLC-UV analysis
- Type: ADME, Microsome
- experimental setup: read-out: Stabilty
result type: remaining at 1 h, 50 µM (%)
Just the number please, in %, no unit attached.

Quick check: remaining at 1 h, 50 µM of COc1ccc(OC)c(-c2ccc(NC(=O)c3ccncc3F)cc2)c1 ?
15
